Test system: 521955-158-R2-J5-PDC complex spheroid viability
TEST_PROTOCOL: Anticancer human tumor 521955-158-R2-J5-PDC patient-derived pancreatic carcinoma cell line growth inhibition [GQUAD]
RECORDED_CONDITIONS: curve of first compound; second compound 0.1 µM
pIC50: −log10 of the molar value.

{"columns": ["MOLECULE", "LIMIT_SIGN", "pIC50"],
 "data": [
  ["C=CC(=O)N1CCN(c2nc(=O)n(-c3c(C)ccnc3C(C)C)c3nc(-c4c(O)cccc4F)c(F)cc23)C(C)C1 (stereo unspecified) + CN(C)c1ccc(Nc2c3ccc(NC(=O)CCN4CCCC4)cc3nc3cc(NC(=O)CCN4CCCC4)ccc23)cc1", "<", 5.00],
  ["C#Cc1c(F)ccc2cc(O)cc(-c3ncc4c(N5CC6CCC(C5)N6)nc(OCC56CCCN5CC(F)C6)nc4c3F)c12 (stereo unspecified) + Cc1[nH]c2ccc(F)cc2c1-c1nc2c3cccnc3c3ncccc3c2[nH]1", "<", 5.00],
  ["CC(C)(O)C1CCC(Nc2ccc3ncc(-c4cccc(C(F)(F)F)c4)n3n2)CC1 (stereo unspecified) + Cc1cnc(CNC(=O)c2c(=O)c3ccc(N4CCCN(C)CC4)nc3n3c2sc2ccccc23)cn1", "=", 5.92],
  ["CC1COCCN1c1cc(-c2ccnn2C)c2ccnc(-c3ccn[nH]3)c2n1 (stereo unspecified) + Cc1[nH]c2ccc(F)cc2c1-c1nc2c3cccnc3c3ncccc3c2[nH]1", "=", 7.28],
  ["Nc1ccn(C2OC(CO)C(O)C2(F)F)c(=O)n1 (stereo unspecified) + CN(C)c1ccc(Nc2c3ccc(NC(=O)CCN4CCCC4)cc3nc3cc(NC(=O)CCN4CCCC4)ccc23)cc1", "=", 6.37],
  ["Cc1[nH]c2ccccc2c1CCNCc1ccc(/C=C/C(=O)NO)cc1 + Cc1cnc(CNC(=O)c2c(=O)c3ccc(N4CCCN(C)CC4)nc3n3c2sc2ccccc23)cn1", "=", 7.45],
  ["Cc1cccc(N(C)C(=O)C2C(O)CCN2c2nc(C)cc(C(F)(F)F)c2C#N)c1 (stereo unspecified) + Cc1cnc(CNC(=O)c2c(=O)c3ccc(N4CCCN(C)CC4)nc3n3c2sc2ccccc23)cn1", "<", 5.00],
  ["CC1COCCN1c1cc(C2(S(C)(=N)=O)CC2)nc(-c2ccnc3[nH]ccc23)n1 (stereo unspecified) + Cc1[nH]c2ccc(F)cc2c1-c1nc2c3cccnc3c3ncccc3c2[nH]1", "=", 6.10],
  ["COc1ccc([C@@H](O)c2cc(-c3ncnc4cc(N5CCOCC5)ccc34)c(F)cc2Cl)nn1 + Cc1[nH]c2ccc(F)cc2c1-c1nc2c3cccnc3c3ncccc3c2[nH]1", "=", 5.57],
  ["CC1COCCN1c1cc(C2(O)CC3CCC(C2)O3)c2cnn(-c3ccn[nH]3)c2n1 (stereo unspecified) + CN(C)c1ccc(Nc2c3ccc(NC(=O)CCN4CCCC4)cc3nc3cc(NC(=O)CCN4CCCC4)ccc23)cc1", "=", 7.45],
  ["COc1cccc2c1C(=O)c1c(O)c3c(c(O)c1C2=O)CC(O)(C(=O)CO)CC3OC1CC(N)C(O)C(C)O1 (stereo unspecified) + Cc1cnc(CNC(=O)c2c(=O)c3ccc(N4CCCN(C)CC4)nc3n3c2sc2ccccc23)cn1", "=", 6.90]
]}

----------
Recorded IC50 values for a group of molecules are listed next.
System: 521955-158-R2-J5-PDC complex spheroid viability
TEST_PROTOCOL: Anticancer human tumor 521955-158-R2-J5-PDC cell line growth inhibition [GQUAD];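 further: spheroids exposed to agents for one week before reading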
RECORDED_CONDITIONS: curve of first compound; second compound 0.1 µM

{"columns": ["MOLECULE", "ASSAYED_SYSTEM", "UNIT_INFO", "LIMIT_SIGN", "IC50"],
 "data": [
  ["CC1COCCN1c1cc(C2(S(C)(=N)=O)CC2)nc(-c2ccnc3[nH]ccc23)n1 (stereo not given) + CN(C)c1ccc(Nc2c3ccc(NC(=O)CCN4CCCC4)cc3nc3cc(NC(=O)CCN4CCCC4)ccc23)cc1", "521955-158-R2-J5-PDC complex spheroid viability", "nM", "=", 832],
  ["CC[C@@]1(O)C(=O)OCc2c1cc1n(c2=O)Cc2cc3c(CN(C)C)c(O)ccc3nc2-1 + Cc1[nH]c2ccc(F)cc2c1-c1nc2c3cccnc3c3ncccc3c2[nH]1", "521955-158-R2-J5-PDC complex spheroid viability", "nM", "=", 65.6],
  ["CC(=O)O[C@H]1C(=O)[C@@]2(C)[C@H]([C@H](OC(=O)c3ccccc3)[C@]3(O)C[C@H](OC(=O)[C@H](O)[C@@H](NC(=O)c4ccccc4)c4ccccc4)C(C)=C1C3(C)C)[C@]1(OC(C)=O)CO[C@@H]1C[C@@H]2O + Cc1cnc(CNC(=O)c2c(=O)c3ccc(N4CCCN(C)CC4)nc3n3c2sc2ccccc23)cn1", "521955-158-R2-J5-PDC complex spheroid viability", "nM", "<", 31.6],
  ["CCCS(=O)(=O)Nc1ccc(F)c(C(=O)c2c[nH]c3ncc(-c4ccc(Cl)cc4)cc23)c1F + CN(C)c1ccc(Nc2c3ccc(NC(=O)CCN4CCCC4)cc3nc3cc(NC(=O)CCN4CCCC4)ccc23)cc1", "521955-158-R2-J5-PDC complex spheroid viability", "nM", ">", 10000],
  ["COc1cc(C2c3cc4c(cc3C(OC3OC5COC(C)OC5C(O)C3O)C3COC(=O)C23)OCO4)cc(OC)c1O (stereo not given) + CN(C)c1ccc(Nc2c3ccc(NC(=O)CCN4CCCC4)cc3nc3cc(NC(=O)CCN4CCCC4)ccc23)cc1", "521955-158-R2-J5-PDC complex spheroid viability", "nM", "=", 808]
]}

----------
Tested on: 521955-158-R2-J5-PDC complex spheroid viability
TEST_PROTOCOL: Anticancer human tumor 521955-158-R2-J5-PDC cell line growth inhibition [GQUAD]; active = viability on the fitted dose curve at most 10% of control; inactive = the rest;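 further: spheroids exposed to agents for one week before reading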
RECORDED_CONDITIONS: second compound 0.0316 µM; first compound 0.0999 µM
Text: DNA G-quadruplex Stabilizer Agents in Combinations in Complex Spheroids A high-throughput screen of multi-cell type tumor spheroids was designed to identify active combinations of DNA G-quadruplex stabilizer agents and targeted small molecules. […] Compounds. […] If the clinical Cmax for an agent had not been determined, the highest concentration tested was 10 microM. […]
Possible outcomes: true (1) for active, false (0) for inactive

{"columns": ["MOLECULE", "LABEL"],
 "data": [
  ["CC[C@@]1(O)C(=O)OCc2c1cc1n(c2=O)Cc2cc3c(CN(C)C)c(O)ccc3nc2-1 + CN(C)c1ccc(Nc2c3ccc(NC(=O)CCN4CCCC4)cc3nc3cc(NC(=O)CCN4CCCC4)ccc23)cc1", "false (0)"],
  ["CC[C@@]1(O)C(=O)OCc2c1cc1n(c2=O)Cc2cc3c(CN(C)C)c(O)ccc3nc2-1 + Cc1[nH]c2ccc(F)cc2c1-c1nc2c3cccnc3c3ncccc3c2[nH]1", "false (0)"],
  ["Cc1[nH]c2ccccc2c1CCNCc1ccc(/C=C/C(=O)NO)cc1 + Cc1cnc(CNC(=O)c2c(=O)c3ccc(N4CCCN(C)CC4)nc3n3c2sc2ccccc23)cn1", "false (0)"],
  ["CCc1c2c(nc3ccc(O)cc13)-c1cc3c(c(=O)n1C2)COC(=O)[C@]3(O)CC + Cc1cnc(CNC(=O)c2c(=O)c3ccc(N4CCCN(C)CC4)nc3n3c2sc2ccccc23)cn1", "true (1)"],
  ["Cn1ncnc1[C@H]1c2n[nH]c(=O)c3cc(F)cc(c23)N[C@@H]1c1ccc(F)cc1 + CN(C)c1ccc(Nc2c3ccc(NC(=O)CCN4CCCC4)cc3nc3cc(NC(=O)CCN4CCCC4)ccc23)cc1", "false (0)"]
]}

----------
System: 521955-158-R2-J5-PDC complex spheroid viability
TEST_PROTOCOL: Anticancer human tumor 521955-158-R2-J5-PDC cell line growth inhibition [GQUAD];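 further: spheroids exposed to agents for one week before reading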;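 on viability, T/C: 100% = DMSO vehicle control viability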
RECORDED_CONDITIONS: second compound 3.16 µM; first compound 10 µM; stronger effect = lower value
MEASURED_QUANTITY: viability, T/C (%)

{"columns": ["COMPOUND", "ASSAY_VALUE"],
 "data": [
  ["COc1cccc2c1C(=O)c1c(O)c3c(c(O)c1C2=O)CC(O)(C(=O)CO)CC3OC1CC(N)C(O)C(C)O1 (stereo not given) + Cc1cnc(CNC(=O)c2c(=O)c3ccc(N4CCCN(C)CC4)nc3n3c2sc2ccccc23)cn1", 0.13],
  ["C#Cc1c(F)ccc2cc(O)cc(-c3ncc4c(N5CC6CCC(C5)N6)nc(OCC56CCCN5CC(F)C6)nc4c3F)c12 (stereo not given) + CN(C)c1ccc(Nc2c3ccc(NC(=O)CCN4CCCC4)cc3nc3cc(NC(=O)CCN4CCCC4)ccc23)cc1", 16.8],
  ["C#Cc1c(F)ccc2cc(O)cc(-c3ncc4c(N5CC6CCC(C5)N6)nc(OCC56CCCN5CC(F)C6)nc4c3F)c12 (stereo not given) + Cc1[nH]c2ccc(F)cc2c1-c1nc2c3cccnc3c3ncccc3c2[nH]1", 30.9],
  ["COc1ncnc(C2CC2)c1-c1ncc2cnn(Cc3ccc(-c4nc(C(F)(F)F)cn4C(C)C)cc3)c2n1 + Cc1[nH]c2ccc(F)cc2c1-c1nc2c3cccnc3c3ncccc3c2[nH]1", 116],
  ["CC1COCCN1c1cc(C2(S(C)(=N)=O)CC2)nc(-c2ccnc3[nH]ccc23)n1 (stereo not given) + CN(C)c1ccc(Nc2c3ccc(NC(=O)CCN4CCCC4)cc3nc3cc(NC(=O)CCN4CCCC4)ccc23)cc1", 14.8]
]}
